- target: Recombinant human IL-2 (human, UniProt P60568 21-153)
- test_method_notes: cell-based or functional assay
reported_metric: pSTAT5a,b fold EC50 shift, NK92 (huRαβγ) (fold)
Give the value, in units of fold, as a plain number.

XPA.92.042 (antibody, V domains shown, Tested as purified full-length human IgG) VH: EVQLVQSGTEVKKAGDSLKISCKGSGYNFDTYWIGWVRQMPGRGLEWMGTIYPADSDTRYSPSFQGQVTMSADKSISTAYLQWGSLRASDTAMYYCARFSSSAYDIWGQGTMVTVSS VL: SYELTQPPSVSVSPGQTARITCSGDALPRKFAYWYQQKSGQAPVLVIYQDTKRPSGIPERFSGSSSGTTVTLTISDVQAEDDADYYCQSADRSDSYVFGAGTKLTVLG    1860
XPA.92.019 (antibody, V domains shown, Tested as purified full-length human IgG; also called mAb19) VH: EVQLVESGGGLVQPGRSLRLSCAASGFTFSYYGMHWVRQAPGKGLEWVADISNDGSNKYYADSVKGRFTISRDNSKTTLYLQMNSLRPEDTAVYYCATPYYDSSGLDYWGQGTLVTVSS VL: SYELTQPPSVSVSPGQTARITCSGDALPKRFAYWYQQKAGQAPVLVIYEDNKRPSGIPETLSGSSSGTTATLTISGAQEEDEADYYCYSTDNTGGLWVFGGGTKLTVLG    966
XPA.92.099 (antibody, V domains shown, Tested as purified full-length human IgG; also called mAb99; clone 99) VH: QVQLVESGGGLVKPGRSLRLSCAASGFTFNRYAMSWVRQAPGKGLEWVAMISFDGGNQYYTDSVSGRFTISRDNSKTTLFLQMDSLRTEDTAVYYCVRSPAGDWVAYFDYWGQGTLVTVSS VL: DIQMTQSPSSLSASIGDRVTIPCQASEDISNHLSWYQQKPGKAPKPLIFDASDLETGVPSRFSGSGSGTDFALTISSLRPDDFATYYCHQYHDYPSYTFGHGTKLEIKR    495

Here is another binder to look at.
# lookup: pSTAT5a,b fold EC50 shift, NK92 (huRαβγ) of XPA.92.041 (antibody, V domains shown, Tested as purified full-length human IgG) VH: EVQLVQSGAEVKKPGESLKISCKGSGYNFDTYWIGWVRQMPGRGLEWMGTIYPADSDTRYSPSFQGQVTTSADKSISTAYLQWGSLRASDTAMYYCARFSSSAYDIWGQGTMVTVSS VL: SYELTQPPSVSVSPGQTARITCSGDALPRQFAYWYQQKPGQAPVLVIYKDTERPSGIPERFSGSSSGTTVTLTISGVQAEDEADYYCQSADSSGTYHVFGGGTQLTVLG
1230
